target: α4β7 integrin (Homo sapiens (Human), UniProt P13612+P26010); experiment: Integrin Adhesion Assay: Protocol 4 (MAdCAM-coated plate, RPMI-8866 cells with stable LOF mutation of the ITGB1 gene); type: cell-based; settings: Protocol 4; RPMI-8866 cells with LOF mutation of ITGB1, MAdCAM; read-out: Mean IC50 α4β7 KO
Sequence (P13612 34-1032): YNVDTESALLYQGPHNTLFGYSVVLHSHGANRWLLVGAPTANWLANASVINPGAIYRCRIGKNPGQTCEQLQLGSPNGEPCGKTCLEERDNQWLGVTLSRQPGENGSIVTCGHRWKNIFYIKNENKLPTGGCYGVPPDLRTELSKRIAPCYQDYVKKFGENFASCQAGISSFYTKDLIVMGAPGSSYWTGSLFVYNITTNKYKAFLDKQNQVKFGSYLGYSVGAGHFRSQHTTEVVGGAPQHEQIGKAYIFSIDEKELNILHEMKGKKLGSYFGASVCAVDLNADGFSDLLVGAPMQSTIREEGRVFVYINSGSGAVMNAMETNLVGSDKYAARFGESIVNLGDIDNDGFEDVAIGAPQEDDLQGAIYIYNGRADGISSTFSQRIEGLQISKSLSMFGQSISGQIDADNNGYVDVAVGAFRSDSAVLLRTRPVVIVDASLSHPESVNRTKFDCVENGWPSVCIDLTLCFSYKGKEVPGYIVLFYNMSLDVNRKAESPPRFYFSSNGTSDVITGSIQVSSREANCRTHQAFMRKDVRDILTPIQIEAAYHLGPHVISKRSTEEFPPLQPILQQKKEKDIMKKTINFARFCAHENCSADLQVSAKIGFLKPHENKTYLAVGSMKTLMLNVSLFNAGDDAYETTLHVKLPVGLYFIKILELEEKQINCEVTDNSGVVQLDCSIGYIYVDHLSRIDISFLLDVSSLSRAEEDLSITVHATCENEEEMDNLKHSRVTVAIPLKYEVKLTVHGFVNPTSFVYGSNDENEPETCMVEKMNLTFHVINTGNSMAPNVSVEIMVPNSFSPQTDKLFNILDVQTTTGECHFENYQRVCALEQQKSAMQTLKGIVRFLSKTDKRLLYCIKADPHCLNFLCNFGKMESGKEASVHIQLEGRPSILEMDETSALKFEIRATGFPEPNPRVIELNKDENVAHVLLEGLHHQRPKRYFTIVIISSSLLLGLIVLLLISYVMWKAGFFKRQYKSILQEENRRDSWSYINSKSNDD
Sequence (P26010 20-798): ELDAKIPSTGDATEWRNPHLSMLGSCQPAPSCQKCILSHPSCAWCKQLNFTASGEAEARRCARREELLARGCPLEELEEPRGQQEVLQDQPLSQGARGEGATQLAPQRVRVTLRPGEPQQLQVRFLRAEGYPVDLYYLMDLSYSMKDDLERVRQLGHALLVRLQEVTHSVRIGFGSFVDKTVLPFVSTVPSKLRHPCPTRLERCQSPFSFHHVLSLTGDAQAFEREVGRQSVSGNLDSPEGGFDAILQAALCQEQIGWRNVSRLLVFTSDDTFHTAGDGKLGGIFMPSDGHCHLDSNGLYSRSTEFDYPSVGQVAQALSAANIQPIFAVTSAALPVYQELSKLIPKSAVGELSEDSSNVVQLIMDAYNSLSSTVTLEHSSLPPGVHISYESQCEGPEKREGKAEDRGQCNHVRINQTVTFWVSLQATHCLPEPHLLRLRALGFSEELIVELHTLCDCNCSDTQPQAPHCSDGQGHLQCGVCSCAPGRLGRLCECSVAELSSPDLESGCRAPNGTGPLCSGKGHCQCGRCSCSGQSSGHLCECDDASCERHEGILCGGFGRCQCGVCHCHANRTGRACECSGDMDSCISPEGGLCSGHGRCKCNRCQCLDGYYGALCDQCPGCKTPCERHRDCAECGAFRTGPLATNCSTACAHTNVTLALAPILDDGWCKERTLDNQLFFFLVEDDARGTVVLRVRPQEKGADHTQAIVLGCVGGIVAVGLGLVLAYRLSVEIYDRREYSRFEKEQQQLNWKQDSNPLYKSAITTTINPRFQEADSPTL
Field: IC50. Provide a value for each of the compounds that follow.

Consider the worked cases shown below.
CC(C)c1cccc(F)c1C(=O)N[C@@H](Cc1cccc2c(-c3c(C(F)(F)F)c4cc(CN5CCCCC5)ccc4n(C)c3=O)cccc12)C(=O)O; < 10 nM
COc1cc(CN2CCCCC2)cc(OC)c1-c1cccc2c(C[C@H](NC(=O)c3c(C)cccc3F)C(=O)O)cccc12; < 10 nM

For the next question, use this compound.
### Prompt Please give the measured IC50 for this compound: "COc1ccc(CN2CCC(C(C)(C)C)CC2)c(OC)c1-c1cccc2c(C[C@H](NC(=O)C3(C(F)(F)F)CCN(CC(F)(F)F)CC3)C(=O)O)cccc12"
### Response < 10 nM
